# STUDY TARGET: T1, Recombinant human mesothelin (human, UniProt Q13421 296-580, limits assumed)
# T1 construct: also called MSLN
# T1 sequence (Q13421 other isoform, or with tags, fused parts or gaps limits assumed): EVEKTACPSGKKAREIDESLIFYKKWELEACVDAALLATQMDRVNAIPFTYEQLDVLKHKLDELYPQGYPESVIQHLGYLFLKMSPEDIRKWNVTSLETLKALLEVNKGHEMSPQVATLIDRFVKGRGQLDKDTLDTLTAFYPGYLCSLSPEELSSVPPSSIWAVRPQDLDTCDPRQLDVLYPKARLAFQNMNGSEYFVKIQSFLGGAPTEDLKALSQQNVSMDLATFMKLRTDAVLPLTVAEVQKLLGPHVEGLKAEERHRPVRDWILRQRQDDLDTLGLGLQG
# ASSAY INFO: Biacore T100, antibody captured on anti-human IgG, antigen injected, 1:1 Langmuir
Would you mind telling me the reported pKd of each entry?
Field pKd (float): negative decimal logarithm of the concentration in molar.

Looking up 346C6-xi (antibody, human IgG1, kappa, V domains shown, Rabbit-human chimeric anti-human mesothelin with unpaired cysteine at LCcys80; parental mAb in Biacore) VH: QSVEESGGRLVKPDESLTLTCTASGFSLSSYAMIWVRQAPGEGLEWIGTISTGGITYYASWAKGRFTISKTSTTVDLKITSPTTEDTATYFCARGGYAASSAYYLPYYFDLWGQGTLVTVSS VL: AAVLTQTPSPVSAAVGGTVTISCQSSQSVYNNNNLAWFQQKPGQPPKLLIYLASTLASGVPSRFSGSGSGTQFTLTISGVQCDDAATYYCLGGCDDDADTFAFGGGTEVVVKR , I found its pKd recorded as 8.85

Looking up 346C6-zu (antibody, human IgG1, kappa, V domains shown, Humanized anti-human mesothelin with unpaired cysteine at LCcys80; parental mAb in Biacore) VH: EVQLVESGGGLVQPGGSLRLSCAASGFSLSSYAMIWVRQAPGKGLEWIGTISTGGITYYASWAKGRFTISRDNSKNTLYLQMNSLRAEDTAVYYCARGGYAASSAYYLPYYFDLWGQGTLVTVSS VL: DIQMTQSPSSLSASVGDRVTITCQSSQSVYNNNNLAWYQQKPGKVPKLLIYLASTLASGVPSRFSGSGSGTDFTLTISSLQCEDAATYYCLGGCDDDADTFAFGGGTKVEIKR , I found its pKd recorded as 8.16

Looking up 111B10-zu (antibody, human IgG1, kappa, V domains shown, Humanized anti-human mesothelin with unpaired cysteine at LCcys80; parental mAb in Biacore; also called 111810 zu) VH: EVQLVESGGGLVQPGGSLRLSCAASGFSLNNYAMSWVRQAPGKGLEWIGSISTGGLAFYANWAKGRFTISRDNSKNTLYLQMNSLRAEDTAVYYCARNGGGSYIFYYFDLWGQGTLVTVSS VL: DIQMTQSPSSLSASVGDRVTITCQASQSISSYLSWYQQKPGKAPKLLIYSASTLASGVPSRFSGSGSGTDFTLTISSLQCEDAATYYCQSYYDIGTSTFGGGTKVEIKR , I found its pKd recorded as 8.07

// data source = patent US20170252458A1
